system: BE(2)-M17 cells; conditions: human
# Human BE(2)-M17 (TC83) CC50 per record follows

Example results:
compound	Human BE(2)-M17 (TC83) CC50
COC(=O)/C=C/[C@H](Cc1ccccc1)NC(=O)c1cc(C)cc2c1NC(C)(C)C=C2C [Compound 30]	>50.00 µM
CC1=CC(C)(C)Nc2c(C(=O)NC(C)(C)/C=C/S(C)(=O)=O)cccc21 [Compound 38]	>25.00 µM
CS(=O)(=O)/C=C/CNC(=O)c1ccccc1Nc1ccccc1 [Compound 32]	27.14 µM
COC(=O)/C=C/CNC(=O)c1cccc2nccnc12 [Compound 22]	>25.00 µM

Assay BE(2)-M17 cells, sample CS(=O)(=O)/C=C/CNC(=O)c1cccc2nccnc12 [Compound 34] , Human BE(2)-M17 (TC83) CC50 read: >25.00 µM

* * *

# Mouse Neuro-2a (TC83) CC50 per record follows
system: Neuro-2a cells; settings: mouse

Example results:
compound	Mouse Neuro-2a (TC83) CC50
COC(=O)/C=C/[C@H](C)NC(=O)c1cccc2c1NC(C)(C)C=C2C [Compound 24]	>25.00 µM
COC(=O)/C=C/[C@H](Cc1ccccc1)NC(=O)c1cccc2c1NC(C)(C)C=C2C [Compound 29]	>50.00 µM
COC(=O)/C=C/CNC(=O)c1ccccc1Nc1c(Cl)ccc(C)c1Cl [Compound 23]	23.53 µM
C[C@@H]1CC(C)(C)Nc2c(C(=O)NC(C)(C)/C=C/S(C)(=O)=O)cccc21 [Compound 39]	>25.00 µM
COC(=O)/C=C/C(C)(C)NC(=O)c1cccc2c1NC(C)(C)C[C@H]2C [Compound 27]	>25.00 µM

Short answer for COC(=O)/C=C/[C@H](C)NC(=O)c1cccc2c1NC(C)(C)C[C@H]2C [Compound 25] : Mouse Neuro-2a (TC83) CC50 was >25.00 µM

Short answer for Cc1ccc(Cl)c(Nc2ccccc2C(=O)NC/C=C/S(C)(=O)=O)c1Cl [Compound 35] : Mouse Neuro-2a (TC83) CC50 was >25.00 µM

Short answer for O=C(N[C@H](/C=C/S(=O)(=O)c1ccccc1)Cc1ccccc1)c1cccc2c1NCCC2 [Compound 43] : Mouse Neuro-2a (TC83) CC50 was >25.00 µM

* * *

tested on: BE(2)-M17 cells; details: human
# Human BE(2)-M17 (TC83) CC50 per record follows

Example results:
molecule	assay-result
COC(=O)/C=C/CNC(=O)c1c[nH]c2ccc(C)cc12 [Compound 21]	>25.00 µM
CS(=O)(=O)/C=C/CNC(=O)c1ccccc1Nc1cccc(Cl)c1Cl [Compound 33]	5.86 µM
COC(=O)/C=C/C(C)(C)NC(=O)c1cccc2c1NC(C)(C)C=C2C [Compound 26]	>25.00 µM
COC(=O)/C=C/[C@H](Cc1ccccc1)NC(=O)c1c[nH]c2ccc(Cl)cc12 [Compound 28]	>50.00 µM
COc1ccc2[nH]cc(C(=O)N[C@H](/C=C/S(=O)(=O)c3ccccc3)Cc3ccccc3)c2c1 [Compound 40]	>25.00 µM
Cc1ccc(Cl)c(Nc2ccccc2C(=O)NC/C=C/S(C)(=O)=O)c1Cl [Compound 35]	14.50 µM

Short answer for COC(=O)/C=C/[C@H](C)NC(=O)c1cccc2c1NC(C)(C)C=C2C [Compound 24] : Human BE(2)-M17 (TC83) CC50 was >25.00 µM

Short answer for COC(=O)/C=C/C(C)(C)NC(=O)c1cccc2c1NC(C)(C)C[C@H]2C [Compound 27] : Human BE(2)-M17 (TC83) CC50 was >25.00 µM
